Target: Bone morphogenetic protein 1 (Homo sapiens)
Sequence (P13497 whole entry): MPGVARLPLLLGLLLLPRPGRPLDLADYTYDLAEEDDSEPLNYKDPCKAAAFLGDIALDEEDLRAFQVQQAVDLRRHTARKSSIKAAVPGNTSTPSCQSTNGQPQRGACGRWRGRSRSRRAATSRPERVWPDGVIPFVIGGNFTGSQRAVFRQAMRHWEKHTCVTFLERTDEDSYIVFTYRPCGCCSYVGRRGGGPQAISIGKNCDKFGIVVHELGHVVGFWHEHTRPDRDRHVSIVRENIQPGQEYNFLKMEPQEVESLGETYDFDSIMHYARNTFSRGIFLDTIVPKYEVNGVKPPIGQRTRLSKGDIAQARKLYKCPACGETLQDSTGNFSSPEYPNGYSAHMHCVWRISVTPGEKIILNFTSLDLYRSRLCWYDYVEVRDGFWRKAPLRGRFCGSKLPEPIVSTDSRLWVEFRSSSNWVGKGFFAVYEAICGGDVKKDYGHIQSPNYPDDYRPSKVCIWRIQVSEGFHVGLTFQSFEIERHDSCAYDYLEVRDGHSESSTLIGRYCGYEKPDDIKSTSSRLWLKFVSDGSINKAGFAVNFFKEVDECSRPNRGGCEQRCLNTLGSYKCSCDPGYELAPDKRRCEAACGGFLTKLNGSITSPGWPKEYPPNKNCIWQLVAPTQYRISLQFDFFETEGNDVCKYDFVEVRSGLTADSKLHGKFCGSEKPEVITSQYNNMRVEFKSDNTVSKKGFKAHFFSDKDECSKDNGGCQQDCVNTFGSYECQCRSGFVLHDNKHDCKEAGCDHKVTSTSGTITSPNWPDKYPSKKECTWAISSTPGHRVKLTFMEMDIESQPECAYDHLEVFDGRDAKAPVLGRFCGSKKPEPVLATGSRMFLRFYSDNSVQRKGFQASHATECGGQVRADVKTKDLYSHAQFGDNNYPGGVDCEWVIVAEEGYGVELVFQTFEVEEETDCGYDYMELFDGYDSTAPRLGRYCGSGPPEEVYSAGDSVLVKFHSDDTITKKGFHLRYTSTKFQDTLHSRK
Experiment: Inhibition of C-terminal FLAG-6x-His epitope tagged and N-terminal human RAGE signal sequence tagged human BMP1 (23 to 721 amino acids) expressed in CHO-E1A cells pre-incubated for 10 mins before promyostatin peptide substrate addition and measured after 60 mins using 0.5 nM BMP1 by FRET based assay
Format: cell-based
pIC50: −log10 of the molar value.
Metric: pIC50

Known results for compounds:
CCCCC[C@@H](C(=O)NCNC(=O)c1cccc(-c2ccc(C(=O)NCP(=O)(O)O)c(C)c2)n1)[C@@H](CC)N(O)C=O : > 6.90
CCCCC[C@@H](C(=O)NCNC(=O)c1cccc(-c2cccc(C(=O)O)c2C)n1)[C@@H](CC)N(O)C=O : > 6.90
CCCCC[C@H](CN(O)C=O)C(=O)NCNC(=O)c1cccc(-c2cccc(O)c2)c1 : > 6.90
CCCCC[C@H](CN(O)C=O)C(=O)NCNC(=O)c1cccc(-c2ccc(C(F)(F)F)cc2)n1 : > 6.90
CCCCC[C@@H](C(=O)NCNC(=O)c1cccc(-c2cc(C(=O)OCC)cc(S(N)(=O)=O)c2)n1)[C@@H](CC)N(O)C=O : > 6.90

**Query** Field request: pIC50 | item: CCCCC[C@@H](C(=O)NCNC(=O)c1cccc(-c2ccc(P(=O)(O)O)c(OCC)c2)c1)[C@@H](CC)N(O)C=O
**Result** > 6.90

**Query** Quick one: COc1ccccc1-c1cccc(C(=O)NCNC(=O)[C@H](CC2CCCC2)CN(O)C=O)c1
**Result** > 6.90

**Query** Quick one: CCCCC[C@@H](C(=O)NCNC(=O)c1cccc(-c2cc(OCC)cc(C(=O)N(CC(=O)O)CC(=O)O)c2)n1)[C@@H](CC)N(O)C=O
**Result** > 6.90
